B1: TRAF3IP2 (parent)
chain: YGHDYPRAAYQQVIQPALPGQPLP

- Variants of: B1
- measurement.notes: protein stability index of a GFP-peptide fusion (GPS, HEK-293T) (PSI 1-6); higher = more stable;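 further: lentivirally expressed fusions sorted by FACS into six bins by GFP to DsRed ratio, PSI derived from sequencing read proportions per bin multiplied by bin number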
- condition.set: c terminus: a fixed tail appended

changes | protein stability index
Q11Y | 2.52
A8C | 1.94
P22G | 3.86
P16V | 3.03
P16W | 3.06
P19T | 2.65
Q15M | 1.59
L23V | 2.5
L18I | 2.16
Q15L | 2.23
P16R | 1.71
R7P | 2.41
P22S | 1.8
Q21M | 2.67
Q11G | 1.79
P19Y | 1.87
Q11N | 1.96
Q21R | 2.24
I14T | 1.86
P6N | 2.55
A17P | 2.2
Y10K | 2.36
Q15V | 1.68
Q21A | 2.12
D4W | 2.08
A9Y | 2.02
Y1I | 3.52
Y10T | 1.97
A9W | 1.15
Y10M | 1.65
P22R | 1.79
Q12N | 1.65
Q11P | 1.69
A17K | 1.98
G2P | 3.42
Q21H | 1.37
G2A | 2.41
Q11C | 3.05
Q11F | 3.98
L18T | 1.76
Q15H | 2.46
L23H | 1.59
A9C | 2.34
L18P | 1.82
P24M | 2.07
P6A | 2.44
